Can you tell me mass density for the items I'm about to list?
Conditions: 323.15 K; 101.33 kPa; Liquid
Answers are plain numbers, in kg/m3.

Some compounds with known mass density results, for comparison:
COMPOUND	ENDPOINT RESULT
CCCCOC(C)=O [butyl ethanoate]	854.61
CC(=O)OCCC(C)C [3-methylbutyl ethanoate]	864.31
CCOC(=O)CC [ethyl propanoate]	864.33

Hey, quick one: what's mass density for each of these?
1. CCCC(=O)OCC [ethyl butanoate]
2. CCCCOC(=O)CCC [butyl butanoate]

Result string:
[858.43, 851.47]

====

Settings: 318.15 K; 101.33 kPa; Liquid; Falling or rolling sphere viscometry
QUANTITY: viscosity (mPa·s)
One number for each entry, in mPa·s.

Please review the entries below; each comes with its answer.
COMPOUND	viscosity, mPa·s
CCOC(=O)C(C)CC (centres undefined) [ethyl 2-methylbutanoate]	0.597
CCOC(C)=O [ethyl acetate]	0.346
CCOC(=O)CC(C)C [ethyl 3-methylbutanoate]	0.581

Query string: Param item = CCCCOC(=O)CCC [butyl butanoate] ; retrieve measured viscosity.
Result string: 0.659

====

Details: 328.15 K; 101.33 kPa; Liquid; Falling or rolling sphere viscometry
Structures can show the parent of a compound that is named as a salt. ± gives the expanded uncertainty stated by the source.
I'd be grateful if you could share measured viscosity for these entries.
Give the number first and the unit second.

Examples with answers:
MOLECULE	viscosity
CCCCCC(=O)OCC [ethyl hexanoate]	0.509 ± 0.009 mPa·s
CCCCCCOC(C)=O [hexyl ethanoate]	0.689 ± 0.01 mPa·s
CCOC(=O)CC(C)C [ethyl 3-methylbutanoate]	0.516 ± 0.009 mPa·s
CCCC(=O)OCC [ethyl butanoate]	0.442 ± 0.009 mPa·s

Go through the items and report each one's viscosity.
1. CC/C=C\CCOC(C)=O [(Z)-3-hexenyl acetate]
2. CC(=O)OCCC(C)C [3-methylbutyl ethanoate]
3. CC/C=C\CCOC=O [(Z)-3-hexenyl formate]
4. CCOC(=O)CC [ethyl propanoate]
5. CCC/C=C/COC(C)=O [(E)-2-hexenyl acetate]
6. CCCCOC(C)=O [butyl ethanoate]
7. CCOC(=O)C(C)CC (stereo not given) [ethyl 2-methylbutanoate]
8. CCOC(C)=O [ethyl acetate]

Result string:
1. 0.542 ± 0.009 mPa·s
2. 0.567 ± 0.01 mPa·s
3. 0.4 ± 0.01 mPa·s
4. 0.36 ± 0.009 mPa·s
5. 0.547 ± 0.01 mPa·s
6. 0.453 ± 0.009 mPa·s
7. 0.532 ± 0.009 mPa·s
8. 0.315 ± 0.008 mPa·s

State the recorded viscosity for every item in the following list.
1. CC/C=C\CCOC(=O)C(C)C [cis-3-hexenyl isobutyrate]
2. CCCC(=O)OCCC(C)C [3-methylbutyl butanoate]
3. CCCCOC(=O)CCC [butyl butanoate]

Result string:
1. 0.606 ± 0.015 mPa·s
2. 0.646 ± 0.011 mPa·s
3. 0.581 ± 0.009 mPa·s

====

Settings: 308.15 K; 101.33 kPa; Liquid; Falling or rolling sphere viscometry
Response key: t means viscosity >= 0.7 mPa·s; f means viscosity < 0.7 mPa·s.

Worked cases, answers included:
COMPOUND	CLASS ASSIGNMENT
CCOC(=O)C(C)CC (stereo unspecified) [ethyl 2-methylbutanoate]	f
CC(=O)OCCC(C)C [3-methylbutyl ethanoate]	t
CCOC(=O)CC(C)C [ethyl 3-methylbutanoate]	f
CCCC(=O)OCC [ethyl butanoate]	f
CCCCCCOC(C)=O [hexyl ethanoate]	t

Turning now to a further compound:
Query string: // inclusive: viscosity at least 0.7 mPa·s? input: CCCCOC(C)=O [butyl ethanoate]
Result string: f

====

Settings: 343.15 K; 101.33 kPa; Liquid
Where a name gives a salt, the structure may show the parent alone.
QUANTITY: mass density (kg/m3)
Give bare numbers, in kg/m3.

Known results for molecules:
MOLECULE	mass density, kg/m3
CCOC(=O)C(C)CC (centres undefined) [ethyl 2-methylbutanoate]	831.46
CCCC(=O)OCC [ethyl butanoate]	850.04

Would you mind giving mass density for every molecule in the list below?
1. CCCCOC(=O)CCC [butyl butanoate]
2. CC/C=C\CCOC(=O)C(C)C [cis-3-hexenyl isobutyrate]
3. CCCCCC(=O)OCC [ethyl hexanoate]
4. CC(=O)OCCC(C)C [3-methylbutyl ethanoate]

Result string:
[841.47, 840.09, 841.46, 851.07]

# batch size: 5; output mass density per entry
1. CCCCCCOC(=O)CCC [hexyl butanoate]
2. CCCC(=O)OCCC(C)C [3-methylbutyl butanoate]
3. CCOC(=O)CC [ethyl propanoate]
4. CCCCOC(C)=O [butyl ethanoate]
5. CCCCCCOC(C)=O [hexyl ethanoate]

Result string:
[820.76, 832.76, 853.48, 841.77, 826.3]

Give one value of mass density per listed molecule.
1. CCOC(=O)CC(C)C [ethyl 3-methylbutanoate]
2. CCOC(C)=O [ethyl acetate]
3. CC/C=C\CCOC=O [(Z)-3-hexenyl formate]

Result string:
833.62
858.36
888.73

====

Settings: 313.15 K; 101.33 kPa; Liquid; Falling or rolling sphere viscometry
Structures can show the parent of a compound that is named as a salt.
QUANTITY: viscosity (mPa·s)
One number for each entry, in mPa·s.

Examples from the recorded data:
COMPOUND	viscosity / mPa·s
CCCC(=O)OCC [ethyl butanoate]	0.519
CCOC(=O)C(C)CC (stereo not drawn) [ethyl 2-methylbutanoate]	0.635
CCOC(=O)CC(C)C [ethyl 3-methylbutanoate]	0.62
CCOC=O [ethyl methanoate]	0.329
CCOC(C)=O [ethyl acetate]	0.363
CC/C=C\CCOC=O [(Z)-3-hexenyl formate]	0.469
CCCCOC(=O)CCC [butyl butanoate]	0.705
CCCCCC(=O)OCC [ethyl hexanoate]	0.614

I would be grateful if you could provide viscosity for each of the following entries.
1. CCCC(=O)OCCC(C)C [3-methylbutyl butanoate]
2. CCOC(=O)CC [ethyl propanoate]
3. CCCCOC(C)=O [butyl ethanoate]

Result string:
0.781
0.418
0.546

Return reported viscosity values for all items listed beneath this line.
1. CCC/C=C/COC(C)=O [(E)-2-hexenyl acetate]
2. CC/C=C\CCOC(C)=O [(Z)-3-hexenyl acetate]

Result string:
1. 0.666
2. 0.66

====

Conditions: 303.15 K; 101.33 kPa; Liquid
QUANTITY: mass density (kg/m3)
One number for each entry, in kg/m3.

Some entries whose results are on file:
COMPOUND	mass density [kg/m3]
CC/C=C\CCOC(=O)C(C)C [cis-3-hexenyl isobutyrate]	873.61
CCOC(=O)CC [ethyl propanoate]	879.31

Batch: mass density for all items listed.
1. CCOC(=O)C(C)CC (configuration not stated) [ethyl 2-methylbutanoate]
2. CCC/C=C/COC(C)=O [(E)-2-hexenyl acetate]
3. CCOC(C)=O [ethyl acetate]
4. CCOC=O [ethyl methanoate]
5. CC/C=C\CCOC(C)=O [(Z)-3-hexenyl acetate]

Result string:
1. 861.48
2. 891.78
3. 887.14
4. 907.68
5. 893.14

====

Details: 298.15 K; 101.33 kPa; Liquid; Falling or rolling sphere viscometry
Where a name gives a salt, the structure may show the parent alone.
Kindly state viscosity for each of the entries shown.
Numbers only, in mPa·s.

Sample records with viscosity:
MOLECULE	U	ENDPOINT RESULT
CC/C=C\CCOC(C)=O [(Z)-3-hexenyl acetate]	mPa·s	0.823
CC/C=C\CCOC=O [(Z)-3-hexenyl formate]	mPa·s	0.561
CC/C=C\CCOC(=O)C(C)C [cis-3-hexenyl isobutyrate]	mPa·s	0.941
CCCCOC(=O)CCC [butyl butanoate]	mPa·s	0.876
CCOC=O [ethyl methanoate]	mPa·s	0.381

# return viscosity for each item in the list
1. CC(=O)OCCC(C)C [3-methylbutyl ethanoate]
2. CCC/C=C/COC(C)=O [(E)-2-hexenyl acetate]

Result string:
1: 0.827; 2: 0.831

Fill in viscosity for each of the 4 molecules listed.
1. CCCC(=O)OCCC(C)C [3-methylbutyl butanoate]
2. CCCC(=O)OCC [ethyl butanoate]
3. CCOC(=O)CC [ethyl propanoate]
4. CCOC(=O)CC(C)C [ethyl 3-methylbutanoate]

Result string:
1: 0.967; 2: 0.62; 3: 0.492; 4: 0.752

Query string: Fill in: viscosity of CCCCOC(C)=O [butyl ethanoate] is ___
Result string: 0.677

====

Kindly state viscosity for each of the entries shown.
Conditions: 303.15 K; 101.33 kPa; Liquid; Falling or rolling sphere viscometry
Counter-ions that a name gives are not always drawn. ± gives the expanded uncertainty stated by the source.
Note: state the figure and append the unit.

Solved cases below.
COMPOUND	ENDPOINT RESULT
CCCC(=O)OCCC(C)C [3-methylbutyl butanoate]	0.897 ± 0.013 mPa·s
CCOC(=O)C(C)CC (configuration not stated) [ethyl 2-methylbutanoate]	0.723 ± 0.01 mPa·s
CC/C=C\CCOC=O [(Z)-3-hexenyl formate]	0.527 ± 0.011 mPa·s
CCOC(C)=O [ethyl acetate]	0.399 ± 0.009 mPa·s
CCOC=O [ethyl methanoate]	0.362 ± 0.009 mPa·s
CC/C=C\CCOC(=O)C(C)C [cis-3-hexenyl isobutyrate]	0.868 ± 0.02 mPa·s
CCCCOC(C)=O [butyl ethanoate]	0.628 ± 0.009 mPa·s
CCCCOC(=O)CCC [butyl butanoate]	0.812 ± 0.011 mPa·s

Give me viscosity for each of these compounds, listed below.
1. CCOC(=O)CC(C)C [ethyl 3-methylbutanoate]
2. CCOC(=O)CC [ethyl propanoate]
3. CCCCCCOC(C)=O [hexyl ethanoate]

Result string:
1: 0.703 ± 0.011 mPa·s; 2: 0.464 ± 0.009 mPa·s; 3: 0.962 ± 0.012 mPa·s

Query string: # lookup: viscosity of CCCC(=O)OCC [ethyl butanoate]
Result string: 0.583 ± 0.009 mPa·s
